Every entry's value here was drawn from patent US20240409645A1.

Target: T1, human IL-2Rγ (common cytokine receptor γ-chain) (human, UniProt P31785 23-262, limits assumed)
T1 construct: Recombinant protein coated on the plate or immobilised on a CM5 chip; also called hu IL-2R; CD132
T1 sequence: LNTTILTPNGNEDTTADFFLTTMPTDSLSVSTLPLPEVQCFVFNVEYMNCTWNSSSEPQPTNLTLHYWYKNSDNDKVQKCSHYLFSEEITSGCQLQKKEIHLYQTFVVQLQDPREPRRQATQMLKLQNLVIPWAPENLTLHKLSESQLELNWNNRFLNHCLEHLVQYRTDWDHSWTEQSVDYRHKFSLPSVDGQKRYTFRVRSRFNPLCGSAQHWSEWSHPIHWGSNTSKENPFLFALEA
Assay: PE binding ELISA, periplasmic extract on coated protein
So I've got a bunch of binders here, and I need their OD (PE binding ELISA) values.
Please provide the amount together with its unit, number first.

Recorded OD (PE binding ELISA) for FJ1427_P035MP04C12 (VHH, VHH in periplasmic extract; also called clone nr) VHH: EVQLVESGGGWVQVGESLRLSCAPSGRTFVSGIMGWFRQAPGKEREFVARIILNNNSTRYIDSVKGRFTISRDSAKNTMYLQMDSLRPEDTAVYYCAARDRYGSGNSLSPSAYDYWGQGTQVTVSS , please?
1.68 OD450 nm

Recorded OD (PE binding ELISA) for FJ1427_P035MP04C05 (VHH, VHH in periplasmic extract; also called clone nr) VHH: QVQLVESGGGWVQVGESLRLSCAPSGRTFVSGIMGWFRQAPGKEREFVARIILNNNSTRYTDSVKGRFTISRDSAKDTMYLQMNTLRPEDTAVYYCAARDRYGSGNSLSPSAYDYWGQGTQVTVSS , please?
1.81 OD450 nm

Recorded OD (PE binding ELISA) for 27-MP04G01 (VHH, VHH in periplasmic extract; also called FJ1427_P035MP04G01; clone nr) VHH: QVQLVESGGGLVQAGGSLTLSCAAPGRTFGTDVVGWFRQAPGKEREFVASISRSGDGIYYDDSVKGRFTISRNNAWNTVNLQMNSLKVEDTAVYYCAAGDGWSTYDYWGQGTQVTVSS , please?
0.362 OD450 nm

Recorded OD (PE binding ELISA) for FJ1427_P035MP04B03 (VHH, VHH in periplasmic extract; also called clone nr) VHH: QVQLQESGGGLVQAGESLRLSCAASGPTASRVAVAWFRQVPGKEREFVAVVNRPGTMTKYADSVKGRFTISRDSAKNTVYLQMNSLKPEDTAVYYCAADSVPYGRPYYFQTSAGNYDYWGQGTQVTVSS , please?
1.37 OD450 nm

Recorded OD (PE binding ELISA) for 33-MP04C09 (VHH, VHH in periplasmic extract; also called FJ1427_P035MP04C09; clone nr) VHH: QLQLVESGGGLVQAGGSLRLSCAASGPTFSRVAVGWFRQAPGKEREFVAAVNRPATMTKYADSVKGRFTVSRDNAKNTVDLQMNSMKPEDTAVYYCAADSVPYGRPYYWQTSAGDYDYWGQGTQVTVSS , please?
1.69 OD450 nm

Recorded OD (PE binding ELISA) for FJ1427_P035MP04E07 (VHH, VHH in periplasmic extract; also called clone nr) VHH: QVQLVESGGGLVQAGGSLRLSCAASGRTLSRYAMGWFRQAPGKERDFVAATSWGGDTYYADSVEGRFTFSRDNAKNAVYLQMNSLQPEDTAVYYCAAAPTSFATTAYSSSNSYAYWGQGTQVTVSS , please?
0.919 OD450 nm

Recorded OD (PE binding ELISA) for FJ1427_P035MP04H03 (VHH, VHH in periplasmic extract; also called clone nr) VHH: QLQLVESGGGLVQAGGSLRLSCAASGRTLSRYAMGWFRQAPGKEREFVAADSWGGDTFYADSVEGRFTFSRDNAKNAAYLQMNSLQPEDTATYYCAGAPTSFATTAYSSSNSYRYWGQGTQVTVSS , please?
1.25 OD450 nm

Recorded OD (PE binding ELISA) for FJ1427_P035MP04B12 (VHH, VHH in periplasmic extract; also called clone nr) VHH: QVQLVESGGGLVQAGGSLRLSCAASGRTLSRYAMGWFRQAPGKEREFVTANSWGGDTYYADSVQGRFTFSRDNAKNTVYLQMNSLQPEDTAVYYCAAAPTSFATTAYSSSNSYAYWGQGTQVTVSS , please?
0.936 OD450 nm

Recorded OD (PE binding ELISA) for FJ1427_P035MP04E09 (VHH, VHH in periplasmic extract; also called clone nr) VHH: QVQLVESGGGLVQAGGSLRLSCAASGRTLSRYAMGWFRQAPGKEREFVTANSWGGDTYYADSVQGRSTFSRDNAKNTVYLQMNSLQPEDTAVYYCAAAPTSFATTAYSSSNSYAYWGQGTQVTVSS , please?
0.652 OD450 nm

Recorded OD (PE binding ELISA) for FJ1427_P035MP04G03 (VHH, VHH in periplasmic extract; also called clone nr) VHH: EVQLVESGGGWVQVGESLRLSCAPSGRTFVSGIMGWFRQAPGKEREFVARIILNNNSTRYTDSVKGRFTISRDSAKNTMYLQMDSLRPEDTAVYYCAARDRYGSGNSLSPSAYDYWGQGTQVTVSS , please?
0.933 OD450 nm

Recorded OD (PE binding ELISA) for 28-MP04D02 (VHH, VHH in periplasmic extract; also called FJ1427_P035MP04D02; clone nr; 300) VHH: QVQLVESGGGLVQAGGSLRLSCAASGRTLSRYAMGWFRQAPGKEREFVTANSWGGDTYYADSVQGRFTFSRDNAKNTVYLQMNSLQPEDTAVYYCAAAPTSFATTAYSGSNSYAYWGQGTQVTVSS , please?
0.782 OD450 nm

Recorded OD (PE binding ELISA) for FJ1427_P035MP04B05 (VHH, VHH in periplasmic extract; also called clone nr) VHH: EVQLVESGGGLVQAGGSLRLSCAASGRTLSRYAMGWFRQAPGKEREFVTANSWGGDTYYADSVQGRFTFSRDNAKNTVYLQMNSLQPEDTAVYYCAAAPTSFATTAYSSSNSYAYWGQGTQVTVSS , please?
1.49 OD450 nm

Recorded OD (PE binding ELISA) for FJ1427_P035MP04A01 (VHH, VHH in periplasmic extract; also called clone nr) VHH: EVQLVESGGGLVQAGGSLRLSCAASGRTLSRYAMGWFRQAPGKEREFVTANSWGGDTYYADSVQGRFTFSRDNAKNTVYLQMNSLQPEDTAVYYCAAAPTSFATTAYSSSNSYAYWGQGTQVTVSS , please?
0.867 OD450 nm

Recorded OD (PE binding ELISA) for FJ1427_P035MP04B06 (VHH, VHH in periplasmic extract; also called clone nr; 330) VHH: QLQLVESGGGWVQVGESLRLSCVPSGRTFVSGIMGWFRQAPGKEREFVARIILNNNSTRYTDSVKGRFTISRDSAKNTMYLQMNTLRPEDTAVYYCAARDRYGSGNSLSPSAYDYWGQGTQVTVSS , please?
1.45 OD450 nm

Recorded OD (PE binding ELISA) for FJ1427_P035MP04B02 (VHH, VHH in periplasmic extract; also called clone nr) VHH: QVQLVESGGGWVQVGESLRLSCAPSGRTFVSGIMGWFRQTPGKEREFVARIILNNNSTRYTDSVKGRFTISRDSAKNTMYLQMNTLRPEDTAVYYCAARDRYGSGNSLSPSAYDYWGQGTQVTVSS , please?
1.97 OD450 nm
